Where these numbers come from: PubChem BioAssay AID1159580

experiment: chemical genetic growth profiling, strain panel (AID 1159580);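 note: tested at 20 µM; growth read once vehicle control cultures reached saturation at 30 °C; 1 = growth at the plate median or of vehicle wells; lower values mean less growth of the strain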; conditions: S. cerevisiae deletion strains, growth OD, locus YAR019C, strain CDC15
Among all 5,500 compounds or so, about 2,000 (36%) were called active. Roughly 18% stayed inconclusive and do not appear here. Cut-off read from the data, not from the text of the source: active = normalized growth mostly below about 0.91 (no sharp cut-off); inconclusive = no clear call, values can overlap the other calls; inactive = mostly above about 0.92. The list shows a part of the results.
Just give me one of these, please: active, inactive

As a guide, the following entries are already answered.
                                   molecule  assigned_category
0  COc1cc(Br)cc(C=Nc2ccc(Sc3ccccc3)nc2Sc2ccccc2)c1O           inactive
1  O=C1C(Cl)=C(Oc2cc(Cl)c(Cl)cc2Cl)C(=O)c2ccccc21             active
2           COc1ccccc1NC(=S)N/N=C\c1ccccc1O           inactive
3  OC1(C(F)(F)F)CC(c2ccc3ccccc3c2)=NN1 (configuration not stated)             active
4             CC(C)(C)NC(=S)N/N=C\c1ccccc1O           inactive
5  CC(C)(C)C(=O)NC(=S)N/N=C\c1cc(Cl)cc(Cl)c1O           inactive

IN: # outcome recorded in this test, key = `O/N=C(/c1ccc(Cl)cc1)c1cc2ccccc2o1`
OUT: inactive

IN: # outcome recorded in this test, key = CC(NC(=S)N/N=C\c1ccccc1O)c1ccccc1 (configuration not stated)
OUT: inactive

IN: # outcome recorded in this test, key = `O=C(NNc1ccc(F)cc1F)c1sccc1Cl`
OUT: inactive

IN: # outcome recorded in this test, key = Cc1c(C)c(C)c(C(O)c2ccccc2)c(C)c1C (configuration not stated)
OUT: inactive

IN: # outcome recorded in this test, key = `CCOC(=O)N/N=C\c1cc(Cl)cc(Cl)c1O`
OUT: inactive

IN: # outcome recorded in this test, key = `Cc1ccc(NNC(=O)c2cccs2)cc1Cl`
OUT: inactive

----------
assay: chemical genetic growth profiling, strain panel (AID 1159580); details: S. cerevisiae deletion strains, growth OD, locus YMR058W, strain fet3
Hit rate of the full screen: of about 5,500 compounds, about 2,000 (36%) were called active. Roughly 18% stayed inconclusive and do not appear here. Cut-off read from the data, not from the text of the source: active = normalized growth mostly below about 0.91 (no sharp cut-off); inconclusive = no clear call, values can overlap the other calls; inactive = mostly above about 0.92. The list shows a part of the results.
Just give me one of these, please: yes (1) for active, no (0) for inactive

As a guide, the following entries are already answered.
>>> print(df.to_string())
                                   compound  assigned_category
0  CC(=O)O[C@]1(C(C)=O)CCC2C3C=C(Cl)C4=CC(=O)[C@@H]5C[C@@H]5[C@]4(C)C3CC[C@@]21C (stereo partly specified)             no (0)
1  C[C@]12C=CC(=O)C=C1CCC1C2[C@@H](O)C[C@@]2(C)C1CC[C@]2(O)C(=O)COP(=O)(O)O (stereo partly specified)             no (0)
2            C[C@@H]([C@H](O)c1ccccc1)N(C)C             no (0)

IN: # outcome recorded in this test, key = CNC(C)C(O)c1ccccc1 (stereo unspecified)
OUT: no (0)

IN: # outcome recorded in this test, key = `CCCCCCCCCCCC1=C(O)C(=O)C=C(O)C1=O`
OUT: yes (1)

IN: # outcome recorded in this test, key = CCCC(C)(COC(N)=O)COC(=O)NC(C)C (stereo unspecified)
OUT: no (0)

----------
test: chemical genetic growth profiling, strain panel (AID 1159580); conditions: S. cerevisiae deletion strains, growth OD, locus YER133W, strain GLC7
Hit rate of the full screen: of about 5,500 compounds, about 2,000 (36%) were called active. Another 18% or so got no clear call; they are omitted. Cut-off read from the data, not from the text of the source: active = normalized growth mostly below about 0.91 (no sharp cut-off); inconclusive = no clear call, values can overlap the other calls; inactive = mostly above about 0.92. This is one part of the list.
Just give me one of these, please: 1 for active, -1 for inactive

As a guide, the following entries are already answered.
>>> print(df.to_string())
                                   molecule  assigned_category
0   c1ccc(-c2nnc(-c3ccccn3)nc2-c2ccccc2)cc1                 -1
1  COc1cc(Br)cc(C=Nc2ccc(Sc3ccccc3)nc2Sc2ccccc2)c1O                 -1
2             Cc1cc(Cl)ccc1NNC(=O)c1sccc1Cl                 -1
3  OC1(C(F)(F)F)CC(c2ccc3ccccc3c2)=NN1 (stereo unspecified)                  1
4         CCCCNC(=S)N/N=C\c1cc(Cl)cc(Cl)c1O                  1

Consider now this further molecule.
IN: # outcome recorded in this test, key = `O=C(NNc1ccc(F)cc1F)c1sccc1Cl`
OUT: -1

----------
assay: chemical genetic growth profiling, strain panel (AID 1159580); details: S. cerevisiae deletion strains, growth OD, locus YML120C, strain ndi1, stronger effect = lower value
Screen size: about 5,500 compounds; about 2,000 (36%) were called active. About 18% were inconclusive and are not listed. The list shows a part of the results.
REPORTED ENDPOINT: normalized growth
I'd appreciate a reply containing only the number, no unit.

In [3]: df
Out[3]:
                                   molecule  value_observed
0  CC1(C)O[C@H]2CC(=O)OC[C@]23[C@H]2CC[C@@]4(C)[C@H](c5ccoc5)OC(=O)[C@H]5O[C@]54[C@]2(C)C(=O)C[C@@H]13           0.969

Alright, here's another molecule for you.
IN: Bench note: what normalized growth did CC1(C)C=CC(=O)[C@@]2(C)C1CC(=O)[C@]1(C)C2CC[C@@]2(C)[C@H](c3ccoc3)OC(=O)C3OC321 (stereo not given in full) show?
OUT: 0.99

----------
# maps each entry to its normalized growth
assay: chemical genetic growth profiling, strain panel (AID 1159580);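 note: tested at 20 µM; growth read once vehicle control cultures reached saturation at 30 °C; 1 = growth at the plate median or of vehicle wells; lower values mean less growth of the strain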; conditions: S. cerevisiae deletion strains, growth OD, locus YLR357W, strain rsc2, stronger effect = lower value
About 2,000 (36%) of roughly 5,500 compounds were called active. Roughly 18% stayed inconclusive and do not appear here. The list shows a part of the results.
I'd appreciate a reply containing only the number, no unit.

For orientation, consider the following solved cases.
MOLECULE	normalized growth
CCOC(=O)c1c(C)cc(OC)cc1O	0.969
N#Cc1nn(-c2c(Cl)cc(C(F)(F)F)cc2Cl)c(N)c1S(=O)C(F)(F)F (stereo not drawn)	0.979
CCCCC1C(=O)N(c2ccccc2)N(c2ccc(O)cc2)C1=O (stereo not drawn)	1.01

Alright, here's another molecule for you.
IN: Bench note: what normalized growth did `CN(C)c1ccc2nc3ccc(=[N+](C)C)cc-3sc2c1` show?
OUT: 1.12

----------
test: chemical genetic growth profiling, strain panel (AID 1159580);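 note: tested at 20 µM; growth read once vehicle control cultures reached saturation at 30 °C; 1 = growth at the plate median or of vehicle wells; lower values mean less growth of the strain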; details: S. cerevisiae deletion strains, growth OD, locus YOR144C, strain elg1, stronger effect = lower value
The whole screen tested about 5,500 compounds, of which about 2,000 (36%) were called active. Not shown: some 18% with an inconclusive outcome. Some of the results follow.
REPORTED ENDPOINT: normalized growth
I'd appreciate a reply containing only the number, no unit.

For orientation, consider the following solved cases.
                                   compound  value_observed
0   NC(=O)NCCCC(N)C(=O)O (stereo not given)           0.993
1  C=C[C@H]1CN2CC[C@H]1C[C@@H]2[C@@H](OC(=O)OCC)c1ccnc2ccc(OC)cc12            1.02

IN: Bench note: what normalized growth did COc1ccc2c3c1OC1C(O)CC=C4C(C2)N(C)CCC431 (stereo not given) show?
OUT: 1.02

----------
# maps each entry to its normalized growth
assay: chemical genetic growth profiling, strain panel (AID 1159580);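 note: tested at 20 µM; growth read once vehicle control cultures reached saturation at 30 °C; 1 = growth at the plate median or of vehicle wells; lower values mean less growth of the strain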; settings: S. cerevisiae deletion strains, growth OD, locus YOL012C, strain htz1
The campaign covered roughly 5,500 compounds. About 2,000 (36%) were called active. Another 18% or so got no clear call; they are omitted. This is one part of the list.
I'd appreciate a reply containing only the number, no unit.

For orientation, consider the following solved cases.
                                   compound  value_observed
0  CC(=O)Oc1ccc2c(c1C(C)C)CCC1C(C)(C)CCC[C@]21C (stereo not given in full)            1.05
1  CC(C)c1c(O)ccc2c1CCC1[C@@](C)(CO)CCC[C@]21C (stereo not given in full)            1.16
2  COC(=O)[C@@]1(C)CCC[C@]2(C)c3ccc(O)c(C(C)C)c3CCC12 (stereo not given in full)           0.967
3  CC(C1OC(C)(C)C(O)C1O)[C@@H]1CC[C@]2(C)C3=CCC4C(C)(C)C(=O)CC[C@]4(C)C3CC[C@@]12C (stereo not given in full)           0.776

Alright, here's another compound for you.
IN: Bench note: what normalized growth did CCCCCCC(C)OC(=O)COc1ccc(Cl)cc1Cl (stereo not given) show?
OUT: 0.707
